B1: ZNF207 (parent)
chain: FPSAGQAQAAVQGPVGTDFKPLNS

- Variants of: B1
- testDetails: protein stability index of a GFP-peptide fusion (GPS, HEK-293T) (PSI 1-6); higher = more stable;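 further: lentivirally expressed fusions sorted by FACS into six bins by GFP to DsRed ratio, PSI derived from sequencing read proportions per bin multiplied by bin number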
- conditionParameters: c terminus: a fixed tail appended
I would appreciate it if you labelled entries T when protein stability index is 4 or higher, otherwise F.

seqText: FPSAGQAQEAVQGPVGTDFKPLNS [A9E]
labelValue: F

seqText: FPSAGQAQAAVQGVVGTDFKPLNS [P14V]
labelValue: F

In: In plain terms: is recorded protein stability index at least 4 for FPSAGQAQPAVQGPVGTDFKPLNS [A9P] ?
Out: F

In: Okay, and FPSAGQAQAAVQGPVGTDVKPLNS [F19V] ?
Out: F

In: Okay, and TPSAGQAQAAVQGPVGTDFKPLNS [F1T] ?
Out: T

In: Okay, and FPSAGQAQAAVQGPVGTRFKPLNS [D18R] ?
Out: F

In: Okay, and FPSAGQAQAAVQGPVGTDFAPLNS [K20A] ?
Out: F

In: Okay, and FPSMGQAQAAVQGPVGTDFKPLNS [A4M] ?
Out: F

In: Okay, and EPSAGQAQAAVQGPVGTDFKPLNS [F1E] ?
Out: T

In: Okay, and FPSAGQAQAAVQGPVGTDFKPLNH [S24H] ?
Out: F
